Reference source: ChEMBL document CHEMBL1201862

Listing of entries alongside the reported GI50.
Tested on: DU-145
Experiment: NCI tumour cell line growth inhibition, 48 h
Calls of active or inactive are those of the source. Rule as the data show it: active = GI50 up to about 1.1 µM and inactive = higher.

>>> readout_value("CC1(c2nc3cc(Cl)c(Cl)cc3[nH]2)CCC(C(=O)O)C(C)(C)O1 (centres undefined)")
"> 100 µM (inactive)"
>>> readout_value("CC(=O)Nc1ccc(NC(=O)c2c(Cl)c(Cl)c(Cl)c(Cl)c2-c2nc3ccccc3[nH]2)cc1")
"46.8 µM (inactive)"
>>> readout_value("Nc1nncs1")
"2070 µM (inactive)"

GET /value?item= CC(C)(C)c1cc(/C=C(\C#N)C2=NCCO2)cc(C(C)(C)C)c1O &field=GI50 returns 4.94 µM (inactive)

GET /value?item= Cc1ccc(/N=C2\SC(=NN(C)C)S\C2=N/c2ccc(C)cc2)cc1 &field=GI50 returns > 100 µM (inactive)

GET /value?item= COc1cc(/C=C2\N=C(c3ccccc3)N(c3nc4cc(C)c(C)cc4s3)C2=O)ccc1O &field=GI50 returns 61.7 µM (inactive)

GET /value?item= CN(C)C(=S)Oc1ccc2ccc(=O)oc2c1 &field=GI50 returns > 100 µM (inactive)

GET /value?item= N=C(CSSCC(=N)NCC12CC3CC(CC(C3)C1)C2)NCC12CC3CC(CC(C3)C1)C2 &field=GI50 returns 16.9 µM (inactive)

GET /value?item= CC(=O)OC1CC[C@@]2(C)C(CC[C@]3(C)C2CC=C2[C@@H]4CC(C)(C)CCC4(C)CCC23C)[C@@]1(C)C(=O)O (some centres undefined) &field=GI50 returns 16.6 µM (inactive)

GET /value?item= Cc1cc(Cc2cc(C)c(NC(=O)C(=O)C3CCC4=C(SC5C=CC=CC5N4)C3=O)c(C(C)C)c2)cc(C(C)C)c1NC(=O)C(=O)C1CCC2=C(SC3C=CC=CC3N2)C1=O (centres undefined) &field=GI50 returns > 100 µM (inactive)

GET /value?item= COC(=O)[C@]1(c2cc3ccccc3[nH]2)CC2CN(C(=O)OCc3ccccc3)C1CC2=O (some centres undefined) &field=GI50 returns 38.8 µM (inactive)

GET /value?item= C/C(=N\NC(=O)Nc1ccccc1Cl)c1ccc(O)cc1 &field=GI50 returns > 100 µM (inactive)
